target: Chromatin-MDM2 (Homo sapiens); construct: endogenous in cells; host or cells: IB111 liposarcoma cells; assay: MDM2 degradation by western blot and immunofluorescence, chromatin-bound MDM2; assay type: cell-based; conditions: degradation efficacy, cells collected 18 hours after compound addition
Sequence (Q00987 whole entry): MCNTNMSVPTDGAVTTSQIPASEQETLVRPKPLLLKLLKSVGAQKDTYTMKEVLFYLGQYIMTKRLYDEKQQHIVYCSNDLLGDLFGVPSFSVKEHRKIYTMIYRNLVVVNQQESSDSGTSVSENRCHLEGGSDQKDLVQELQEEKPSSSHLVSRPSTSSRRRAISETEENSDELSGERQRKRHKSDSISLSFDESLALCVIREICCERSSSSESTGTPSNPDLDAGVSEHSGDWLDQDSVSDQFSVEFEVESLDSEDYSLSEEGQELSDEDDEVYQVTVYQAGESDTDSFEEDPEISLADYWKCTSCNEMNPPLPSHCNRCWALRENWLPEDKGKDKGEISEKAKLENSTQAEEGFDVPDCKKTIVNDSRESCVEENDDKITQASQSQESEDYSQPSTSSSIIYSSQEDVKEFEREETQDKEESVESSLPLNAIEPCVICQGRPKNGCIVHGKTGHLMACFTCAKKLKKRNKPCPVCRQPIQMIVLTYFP
outcome.measure: Chromatin-MDM2 degradation

- COc1ccc2[nH]c3c(-c4cccc5ccccc45)nccc3c2n1.Cl: +++ (+++ ≥ 80%)
- COc1ccc2[nH]c3c(-c4cccc5ccccc45)nccc3c2n1: +++ (+++ ≥ 80%)
- COc1ccc2[nH]c3c(-c4cccc5ccccc45)nccc3c2n1.O=C(O)CC(O)(CC(=O)O)C(=O)O: +++ (+++ ≥ 80%)
- COc1ccc2[nH]c3c(-c4cccc5c4CCCC5)nccc3c2n1.Cl: +++ (+++ ≥ 80%)
- COc1ccc2[nH]c3c(-c4ccc(F)c5ccccc45)nccc3c2n1.Cl: + (25%≤+<40%)
- COc1ccc2[nH]c3c(-c4ccnc5ccccc45)nccc3c2n1: + (25%≤+<40%)
- COc1ccc2[nH]c3c(-c4ccc(F)c5ccccc45)nccc3c2n1: ++ (40%≤++<80%)
- COc1ccc2[nH]c3c(-c4cccc5ccccc45)nccc3c2n1.O=C(O)/C=C/C(=O)O: +++ (+++ ≥ 80%)
- COc1ccc2[nH]c3c(-c4cccc5ccccc45)nccc3c2n1.O=S(=O)(O)O: ++ (40%≤++<80%)
- COc1ccc2[nH]c3c(-c4cccc5ccccc45)nccc3c2n1.O=P(O)(O)O: ++ (40%≤++<80%)
- COc1ccc2[nH]c3c(-c4ccnc5nccnc45)nccc3c2n1: + (25%≤+<40%)

This collection of values is drawn from patent EP4461368A1.
